molecular target: human sphingosine-1-phosphate receptor 3 (S1P3) (Homo sapiens (Human), UniProt Q99500); test: Inhibition of cAMP production (HTRF), S1P3 CHO-K1 cells; type: cell-based; conditions: inhibition of cAMP production, hS1P3
Sequence (Q99500 whole entry): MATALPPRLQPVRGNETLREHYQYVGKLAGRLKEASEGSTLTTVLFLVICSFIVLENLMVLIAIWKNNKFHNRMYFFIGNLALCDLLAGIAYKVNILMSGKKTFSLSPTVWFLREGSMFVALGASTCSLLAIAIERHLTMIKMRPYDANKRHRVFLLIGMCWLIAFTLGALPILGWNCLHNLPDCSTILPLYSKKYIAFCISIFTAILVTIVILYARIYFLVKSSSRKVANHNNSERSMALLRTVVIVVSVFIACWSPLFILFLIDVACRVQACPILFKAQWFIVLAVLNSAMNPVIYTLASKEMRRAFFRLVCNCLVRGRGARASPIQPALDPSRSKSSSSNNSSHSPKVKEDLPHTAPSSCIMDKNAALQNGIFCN
# hS1P3 cAMP pEC50 per entry
parameter.measured: hS1P3 cAMP pEC50

{"smiles.notation": "CC(C)n1nnc2cc(-c3nc4c(o3)Cc3ccccc3-4)ccc21", "parameter.measured": "hS1P3 cAMP pEC50", "observed.measurement": "<5.0"}
{"smiles.notation": "CCC1(CC)CC(=O)c2cc(-c3nc(-c4ccc(NS(C)(=O)=O)cc4)no3)ccc2O1", "parameter.measured": "hS1P3 cAMP pEC50", "observed.measurement": "<5.0"}
{"smiles.notation": "COc1ccccc1-c1nnc(-c2ccc3c(c2)oc(=O)n3C)o1", "parameter.measured": "hS1P3 cAMP pEC50", "observed.measurement": "<5.0"}
{"smiles.notation": "CCC1(CC)CC(=O)c2cc(-c3nc(-c4ccncc4OC)no3)ccc2O1", "parameter.measured": "hS1P3 cAMP pEC50", "observed.measurement": "<5.0"}
{"smiles.notation": "C=CCNc1ccc(-c2nc(-c3ccc4sc(N)nc4c3)no2)cc1C#N", "parameter.measured": "hS1P3 cAMP pEC50", "observed.measurement": "<5.0"}
{"smiles.notation": "C=CCNc1ccc(-c2nc(-c3ccc(NS(C)(=O)=O)cc3)no2)cc1C#N", "parameter.measured": "hS1P3 cAMP pEC50", "observed.measurement": ">5.0"}
{"smiles.notation": "CC(C)Nc1ccc(-c2nc(-c3ccc4c(c3)CCC(=O)N4)no2)cc1C#N", "parameter.measured": "hS1P3 cAMP pEC50", "observed.measurement": "<5.0"}
{"smiles.notation": "CC(C)Nc1ccc(-c2nc(-c3ccc4oc(=O)[nH]c4c3)no2)cc1C#N", "parameter.measured": "hS1P3 cAMP pEC50", "observed.measurement": ">5.0"}
{"smiles.notation": "C=CCNc1ccc(-c2nc(-c3ccc4[nH]ncc4c3)no2)cc1C#N", "parameter.measured": "hS1P3 cAMP pEC50", "observed.measurement": ">5.0"}
{"smiles.notation": "COc1cnccc1-c1nc(-c2ccc3c(ccn3C(C)C)c2)no1", "parameter.measured": "hS1P3 cAMP pEC50", "observed.measurement": ">5.0"}
{"smiles.notation": "CCC1(CC)CC(=O)c2cc(-c3nc(-c4ccc5[nH]ncc5c4)no3)ccc2O1", "parameter.measured": "hS1P3 cAMP pEC50", "observed.measurement": "<5.0"}
{"smiles.notation": "C=CCNc1ccc(-c2nc(-c3ccc4[nH]cnc4c3)no2)cc1C#N", "parameter.measured": "hS1P3 cAMP pEC50", "observed.measurement": ">5.0"}
{"smiles.notation": "COc1ccccc1-c1nc(-c2ccc3c(ccn3C(C)C)c2)no1", "parameter.measured": "hS1P3 cAMP pEC50", "observed.measurement": "<5.0"}

====

molecular target: human sphingosine-1-phosphate receptor 1 (S1P1) (Homo sapiens (Human), UniProt P21453); experiment: Inhibition of cAMP production (HTRF cAMP HiRange), S1P1 CHO-K1 cells; assay type: cell-based; settings: CHO-K1; efficacy (SPAN) normalized to fingolimod; read-out: hS1P1 cAMP SPAN
Sequence (P21453 whole entry, looked up): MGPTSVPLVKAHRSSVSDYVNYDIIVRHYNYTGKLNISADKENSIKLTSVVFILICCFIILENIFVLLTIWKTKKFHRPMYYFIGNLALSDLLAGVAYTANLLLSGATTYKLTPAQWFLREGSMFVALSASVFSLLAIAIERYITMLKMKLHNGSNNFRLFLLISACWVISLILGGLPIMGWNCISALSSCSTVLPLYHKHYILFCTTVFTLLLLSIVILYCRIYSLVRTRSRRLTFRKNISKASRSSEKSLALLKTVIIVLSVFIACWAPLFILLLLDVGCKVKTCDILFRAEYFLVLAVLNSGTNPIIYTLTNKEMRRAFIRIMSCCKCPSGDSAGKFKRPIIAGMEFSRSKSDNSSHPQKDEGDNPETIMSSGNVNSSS

{"smiles.notation": "COCC1(COC)CC(=O)c2cc(-c3nc(-c4cccnc4)no3)ccc2O1", "Emax": "< 75%"}
{"smiles.notation": "CCC1(CC)CC(=O)c2cc(-c3nsc(-c4ccc5c(c4)nnn5C(C)C)n3)ccc2O1", "Emax": "< 75%"}
{"smiles.notation": "CCC1(CC)CC(=O)c2cc(-c3nc(-c4cn[nH]c4)no3)ccc2O1", "Emax": "> 75%"}
{"smiles.notation": "CCC1(CC)CC(=O)c2cc(-c3nnc(-c4ccc5c(c4)nnn5C(C)C)s3)ccc2O1", "Emax": "> 75%"}
{"smiles.notation": "C=CCNc1ccc(-c2nc(-c3ccc4[nH]cnc4c3)no2)cc1C#N", "Emax": "> 75%"}
{"smiles.notation": "FC(F)(F)Oc1ccccc1-c1nc(-c2ccc3c(c2)nnn3C2CCCC2)no1", "Emax": "< 75%"}
{"smiles.notation": "Cc1cccc(C)c1-c1noc(-c2ccc3c(c2)nnn3C(C)C)n1", "Emax": "> 75%"}
{"smiles.notation": "CCC1(CC)CC(=O)c2cc(-c3nc(-c4sccc4C)no3)ccc2O1", "Emax": "> 75%"}
{"smiles.notation": "COc1cccc2oc(-c3ccc4c(c3)nnn4C(C)C)nc12", "Emax": "> 75%"}
